src = the CheMixHub viscosity set

experiment: xn = mol fraction of the nth substance listed; conditions: 308.15 K; 101 kPa; x2 = 0.75
Please provide measured viscosity for the entries that follow.
// units = mPa·s; emit number, no label

Recorded result, CCCCCCCCCCO + CO , viscosity: 1.7

Recorded result, CCCCCCCCCCO + CCCCO , viscosity: 3.093

Recorded result, CCCCCCCCCCO + CCO , viscosity: 2.119

Recorded result, CCCCCCCCCCO + CCCO , viscosity: 3.543

* * *

Please provide measured viscosity for the entries that follow.
experiment: xn = mol fraction of the nth substance listed; details: 308.15 K; 101 kPa; x2 = 0.65
// units = mPa·s; emit number, no label

Recorded result, CCCCCCCCCCO + CO , viscosity: 2.36

Recorded result, CCCCCCCCCCO + CCO , viscosity: 2.659

Recorded result, CCCCCCCCCCO + CCCCO , viscosity: 3.629

Recorded result, CCCCCCCCCCO + CCCO , viscosity: 4.04

* * *

assay: xn = mol fraction of the nth substance listed; settings: 298.15 K; 101 kPa; x2 = 0.45
reported metric: viscosity (mPa·s)
// units = mPa·s; emit number, no label

Recorded result, CCCCCCCCCCO + CCCO , viscosity: 6.517

Recorded result, CCCCCCCCCCO + CO , viscosity: 5.154

Recorded result, CCCCCCCCCCO + CCO , viscosity: 5.687

Recorded result, CCCCCCCCCCO + CCCCO , viscosity: 6.609

* * *

Please provide measured log10(viscosity) for the entries that follow.
settings: 308.15 K; 100 kPa
Log10 applied to viscosity; unit prior to transform: mPa·s.

Recorded result, "CN1CCN(C)C1=O" , log10(viscosity): 0.21

Recorded result, "CCCCCCCCCCO" , log10(viscosity): 0.91

Recorded result, "Cc1ccccc1C" , log10(viscosity): -0.21

Recorded result, "CCOC(=O)OCC" , log10(viscosity): -0.19

Recorded result, "OCCOCCOCCO" , log10(viscosity): 1.37

* * *

test: xn = mol fraction of the nth substance listed; conditions: 298.15 K; 101 kPa; x2 = 0.75
Please provide measured viscosity for the entries that follow.
// units = mPa·s; emit number, no label

Recorded result, CCCCCCCCCCO + CCCCO , viscosity: 4.12

Recorded result, CCCCCCCCCCO + CCCO , viscosity: 3.712

Recorded result, CCCCCCCCCCO + CO , viscosity: 2.063

Recorded result, CCCCCCCCCCO + CCO , viscosity: 2.723

* * *

Please provide measured viscosity for the entries that follow.
assay: xn = mol fraction of the nth substance listed; conditions: 318.15 K; 101 kPa; x2 = 0.5
± gives the uncertainty stated by the source.
The answer consists of two parts: a number and, after it, its unit.

Recorded result, CCCCCCCCCCO + CCCCO , viscosity: 3.272 ± 0.03 mPa·s

Recorded result, CCCCCCCCCCO + CCO , viscosity: 2.747 ± 0.025 mPa·s

Recorded result, CCCCCCCCCCO + CCCO , viscosity: 3.416 ± 0.034 mPa·s

Recorded result, CCCCCCCCCCO + CO , viscosity: 2.721 ± 0.024 mPa·s

* * *

experiment: xn = mol fraction of the nth substance listed; details: 308.15 K; 101 kPa; x2 = 0.4
Quick rule for you: viscosity at 4 mPa·s or higher means yes (1), lower means no (0).

### Prompt State whether the measured viscosity reaches 4 mPa·s, counting equality as reaching it, for Cc1ccccc1C + c1ccccc1
### Response no (0)

### Prompt State whether the measured viscosity reaches 4 mPa·s, counting equality as reaching it, for CCCCCCCCCCO + CCCO
### Response yes (1)

### Prompt State whether the measured viscosity reaches 4 mPa·s, counting equality as reaching it, for CCCCCCCCCCO + CCCCO
### Response yes (1)

### Prompt State whether the measured viscosity reaches 4 mPa·s, counting equality as reaching it, for CCCCCCCCCCO + CCO
### Response yes (1)

### Prompt State whether the measured viscosity reaches 4 mPa·s, counting equality as reaching it, for CCCCCCCCCCO + CO
### Response yes (1)

* * *

Please provide measured viscosity for the entries that follow.
assay: xn = mol fraction of the nth substance listed; settings: 318.15 K; 101 kPa; x2 = 0.85
// units = mPa·s; emit number, no label

Recorded result, CCCCCCCCCCO + CCCCO , viscosity: 1.958

Recorded result, CCCCCCCCCCO + CCO , viscosity: 1.344

Recorded result, CCCCCCCCCCO + CO , viscosity: 0.958

Recorded result, CCCCCCCCCCO + CCCO , viscosity: 2.862

* * *

Please provide measured viscosity for the entries that follow.
test: xn = mol fraction of the nth substance listed; conditions: 298.15 K; 101 kPa; x2 = 0.55
// units = mPa·s; emit number, no label

Recorded result, CCCCCCCCCCO + CCCO , viscosity: 5.529

Recorded result, CCCCCCCCCCO + CCO , viscosity: 4.6

Recorded result, CCCCCCCCCCO + CO , viscosity: 3.984

Recorded result, CCCCCCCCCCO + CCCCO , viscosity: 5.671

* * *

test: xn = mol fraction of the nth substance listed; conditions: 308.15 K; 101 kPa; x2 = 0.6
Please provide measured viscosity for the entries that follow.
// units = mPa·s; emit number, no label

Recorded result, Cc1ccccc1C + c1ccccc1 , viscosity: 0.623

Recorded result, CCCCCCCCCCO + CCCCO , viscosity: 3.903

Recorded result, CCCCCCCCCCO + CCCO , viscosity: 4.293

Recorded result, Cc1ccccc1C + C1COCCO1 , viscosity: 0.806

Recorded result, CCCCCCCCCCO + CCO , viscosity: 2.967

Recorded result, CCCCCCCCCCO + CO , viscosity: 2.719

* * *

Please provide measured viscosity for the entries that follow.
assay: xn = mol fraction of the nth substance listed; conditions: 308.15 K; 101 kPa; x2 = 0.95
// units = mPa·s; emit number, no label

Recorded result, CCCCCCCCCCO + CO , viscosity: 0.669

Recorded result, CCCCCCCCCCO + CCCCO , viscosity: 2.157

Recorded result, CCCCCCCCCCO + CCCO , viscosity: 2.624

Recorded result, CCCCCCCCCCO + CCO , viscosity: 1.146

* * *

assay: xn = mol fraction of the nth substance listed; conditions: 308.15 K; 101 kPa; x2 = 0.1
reported metric: viscosity (mPa·s)
// units = mPa·s; emit number, no label

Recorded result, CCCCCCCCCCO + CCO , viscosity: 7.003

Recorded result, CCCCCCCCCCO + CO , viscosity: 6.75

Recorded result, Cc1ccccc1C + C1COCCO1 , viscosity: 0.676

Recorded result, CCCCCCCCCCO + CCCO , viscosity: 6.914

Recorded result, Cc1ccccc1C + c1ccccc1 , viscosity: 0.622

Recorded result, CCCCCCCCCCO + CCCCO , viscosity: 6.798

* * *

Please provide measured viscosity for the entries that follow.
experiment: xn = mol fraction of the nth substance listed; settings: 298.15 K; 101 kPa; x2 = 0.2
// units = mPa·s; emit number, no label

Recorded result, CCCCCCCCCCO + CCCCO , viscosity: 9.226

Recorded result, CCCCCCCCCCO + CCCO , viscosity: 9.064

Recorded result, CCCCCCCCCCO + CCO , viscosity: 8.648

Recorded result, CCCCCCCCCCO + CO , viscosity: 8.429

* * *

experiment: xn = mol fraction of the nth substance listed; settings: 298.15 K; 101 kPa; x2 = 0.4
± gives the uncertainty stated by the source.
Please provide measured viscosity for the entries that follow.
The answer consists of two parts: a number and, after it, its unit.

Recorded result, CCCCCCCCCCO + CO , viscosity: 5.779 ± 0.054 mPa·s

Recorded result, CCCCCCCCCCO + CCCO , viscosity: 7.023 ± 0.065 mPa·s

Recorded result, CCCCCCCCCCO + CCCCO , viscosity: 7.113 ± 0.07 mPa·s

Recorded result, CCCCCCCCCCO + CCO , viscosity: 6.259 ± 0.059 mPa·s

* * *

Please provide measured viscosity for the entries that follow.
settings: 323.15 K; 101 kPa
// units = mPa·s; emit number, no label

Recorded result, "CCCCCCCCCCCC" , viscosity: 0.898

Recorded result, "CCCCCC(=O)[O-].[NH3+]CCO" , viscosity: 358.5

Recorded result, "CCOC(=O)OCC" , viscosity: 0.543

Recorded result, "OCCN(CCO)CCO" , viscosity: 123

Recorded result, "CCC#N" , viscosity: 0.31

* * *

assay: xn = mol fraction of the nth substance listed; settings: 298.15 K; 101 kPa; x2 = 0.3
± gives the uncertainty stated by the source.
Please provide measured viscosity for the entries that follow.

Recorded result, CCCCCCCCCCO + CCCO , viscosity: 8.046 ± 0.077 mPa·s

Recorded result, CCCCCCCCCCO + CCCCO , viscosity: 8.167 ± 0.081 mPa·s

Recorded result, CCCCCCCCCCO + CO , viscosity: 7.086 ± 0.067 mPa·s

Recorded result, CCCCCCCCCCO + CCO , viscosity: 7.442 ± 0.071 mPa·s
